Reference source: ChEMBL document CHEMBL1139358

# METHOD_SUMMARY: Antagonist activity at mouse CCR4 receptor expressed in mouse B300-19 cells assessed as CCL22-induced chemotaxis
pIC50: −log10 of the molar value.
MEASUREMENT_LABEL: pIC50

COc1cc2nc(N3CCC(N4CCCC4)CC3)nc(NC3CCCCCC3)c2cc1OC: 6.89
COc1cc2nc(N3CCC(N4CCCC4)CC3)nc(Nc3ccc(Cl)cc3)c2cc1OC: 6.89

====

# METHOD_SUMMARY: Cmax in BALB/c mouse at 30 mg/kg, po administered as single dose
# Assay type: ADME, organism-based
# Set-up: dose 30 mg/kg, route oral
# CONDITION: in vivo
MEASUREMENT_LABEL: Cmax (ng/mL)
# value in ng/mL; strip the unit string

Notebook: COc1cc2nc(N3CCC(N4CCCC(CO)C4)CC3)nc(Nc3ccc(Cl)cc3)c2cc1OC (stereo unspecified) , Cmax read as 139

====

# METHOD_SUMMARY: Antagonist activity at human CCR4 receptor expressed in mouse B300-19 cells assessed as CCL22-induced chemotaxis
MEASUREMENT_LABEL: IC50 (nM)

1 = COc1cc2nc(N3CCC(N4CCCC4)CC3)nc(NC3CCCCCC3)c2cc1OC
2 = COc1cc2nc(N3CCC(N4CCCC4)CC3)nc(Nc3ccc(Cl)cc3)c2cc1OC
Of 1 and 2 , which one carries the higher reported IC50? Record your answer as the label of the chosen record.
1
(1: 200 nM, 2: 110 nM)

====

# SUBJECT_OF_TEST: UniProtKB P51679
# METHOD_SUMMARY: Antagonist activity at human CCR4 receptor expressed in mouse B300-19 cells assessed as CCL22-induced [35S]GTPgammaS binding at 1 uM
# Type: functional, cell-based
MEASUREMENT_LABEL: inhibition (%)

1 = COc1cc2nc(N3CCC(N4CCCC(CO)C4)CC3)nc(C(=O)c3ccc(Cl)cc3)c2cc1OC (stereo not drawn)
2 = COc1cc2nc(N3CCC(N4CCCC(CO)C4)CC3)nc(N(C)CCc3ccc(Cl)cc3)c2cc1OC (stereo not drawn)
3 = COc1cc2nc(N3CCC(N4CCCC(CO)C4)CC3)nc(C(O)c3ccc(Cl)cc3)c2cc1OC (stereo not drawn)
From the records above, write out the order of decreasing inhibition. Output spec: a listing of the labels in the requested order.
1, 2, 3
(1: 42%, 2: 23%, 3: 7%)

====

# SUBJECT_OF_TEST: C-C chemokine receptor type 4 (Homo sapiens)
# Sequence (P51679 whole entry): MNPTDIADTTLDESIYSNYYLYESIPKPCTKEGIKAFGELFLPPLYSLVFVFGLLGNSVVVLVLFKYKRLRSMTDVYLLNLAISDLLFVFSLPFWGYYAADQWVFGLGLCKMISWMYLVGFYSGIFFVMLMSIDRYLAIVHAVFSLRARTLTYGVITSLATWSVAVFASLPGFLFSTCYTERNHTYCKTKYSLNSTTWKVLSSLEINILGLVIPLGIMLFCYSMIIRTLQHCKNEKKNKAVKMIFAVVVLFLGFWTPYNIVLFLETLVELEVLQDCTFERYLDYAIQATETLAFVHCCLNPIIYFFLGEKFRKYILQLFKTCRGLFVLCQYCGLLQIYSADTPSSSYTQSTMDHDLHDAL
# METHOD_SUMMARY: Antagonist activity at human CCR4 receptor expressed in mouse B300-19 cells assessed as CCL22-induced [35S]GTPgammaS binding
pIC50: −log10 of the molar value.
MEASUREMENT_LABEL: pIC50

Recorded results for 7 compounds are shown here.
COc1cc2nc(N3CCC(N4CCCC(OC)C4)CC3)nc(Nc3ccc(Cl)cc3)c2cc1OC (stereo not given): 7.00
COc1cc2nc(N3CCC(N4CCOC(CO)C4)CC3)nc(Nc3ccc(Cl)cc3)c2cc1OC (stereo not given): 7.00
COc1cc2nc(N3CCC(N4CCCC(CO)C4)CC3)nc(NCCc3ccc(Cl)cc3)c2cc1OC (stereo not given): 7.21
COc1cc2nc(N3CCC(N4CCCC(O)C4)CC3)nc(Nc3ccc(Cl)cc3)c2cc1OC (stereo not given): 7.32
COCC1CCCN(C2CCN(c3nc(Nc4ccc(Cl)cc4)c4cc(OC)c(OC)cc4n3)CC2)C1 (stereo not given): 7.28
COc1cc2nc(N3CCC(N4CCCC(CO)C4)CC3)nc(Nc3ccc(Cl)cc3)c2cc1OC (stereo not given): 7.72
COc1cc2nc(N3CCC(N4CCCC(CO)C4)CC3)nc(NC3CCCCCC3)c2cc1OC (stereo not given): 7.52

a = COc1cc2nc(N3CCC(N4CCCC(CO)C4)CC3)nc(NCc3ccc(Cl)cc3)c2cc1OC (stereo not given)
b = COc1cc2nc(N3CCC(N4CCCC(CO)C4)CC3)nc(NCCCc3ccc(Cl)cc3)c2cc1OC (stereo not given)
Lowest pIC50? choose a or b Record your answer as the label of the chosen record.
b
